Target or system: Recombinant ROCK1 (amino acids 1-535) (Homo sapiens (Human), UniProt Q13464)
Sequence (Q13464 1-535): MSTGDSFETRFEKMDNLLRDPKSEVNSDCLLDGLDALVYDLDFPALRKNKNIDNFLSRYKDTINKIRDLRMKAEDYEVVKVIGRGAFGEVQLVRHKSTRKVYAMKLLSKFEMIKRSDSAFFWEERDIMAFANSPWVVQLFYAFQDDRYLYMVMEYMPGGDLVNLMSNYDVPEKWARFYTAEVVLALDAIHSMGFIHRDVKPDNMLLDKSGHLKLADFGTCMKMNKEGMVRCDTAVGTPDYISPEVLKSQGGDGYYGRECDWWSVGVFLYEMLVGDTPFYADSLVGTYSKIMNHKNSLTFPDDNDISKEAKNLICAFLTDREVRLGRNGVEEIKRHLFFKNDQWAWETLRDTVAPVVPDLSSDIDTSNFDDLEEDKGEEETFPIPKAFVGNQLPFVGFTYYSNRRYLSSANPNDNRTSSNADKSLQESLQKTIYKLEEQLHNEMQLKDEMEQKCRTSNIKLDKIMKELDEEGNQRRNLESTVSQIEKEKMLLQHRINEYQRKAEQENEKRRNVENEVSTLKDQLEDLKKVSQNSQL
Experiment notes: Z′-Lyte kinase assay, ROCK1
Format: biochemical
Condition context: 9 points 2-fold serial dilution
pIC50: −log10 of the molar value.
Assay metric: pIC50

Observe how each entry below is paired with its result.
• c1cc(Nc2ccc3[nH]ncc3c2)nc(N2C3CCC2CNC3)n1 [Example 228] = 8.40
• Fc1cnc(N2CC3CCC(C2)N3)nc1Nc1ccc2[nH]ncc2c1 [Example 217] = 8.22

a: CC(C)C1CN(c2nccc(Nc3ccc4[nH]ncc4c3)n2)CCN1 (centres unmarked) [Example 59]
b: Fc1cnc(N2CCCNCC2)nc1Nc1ccc2[nH]ncc2c1 [Example 215]
Task item: Consider a and b . Which of these has its pIC50 at a higher number? I would appreciate it if you answered with the label of your choice.
Reply: b

I: Cc1cc(Nc2ccc3[nH]ncc3c2)nc(N2CCNCC2C)n1 (centres unmarked) [Example 207]
II: Cc1cc(Nc2ccc3[nH]ncc3c2)nc(N2CCCNCC2C)n1 (centres unmarked) [Example 117]
Task item: Between I and II , which one has the lower reported pIC50 value? I would appreciate it if you answered with the label of your choice.
Reply: I
(I: 7.39, II: 7.82)

1: CC1CNCCCN1c1nccc(Nc2ccc3[nH]ncc3c2)n1 (centres unmarked) [Example 238]
2: CC1CN(c2nccc(Nc3ccc(-c4ccncc4)cc3)n2)CCCN1 (centres unmarked) [Example 43]
3: CC1CCN(c2nccc(Nc3ccc(-c4ccncc4)cc3)n2)CCN1 (centres unmarked) [Example 45]
4: Cc1cc(Nc2ccc3[nH]ncc3c2)nc(N2CCNC(C)C2)n1 (centres unmarked) [Example 204]
5: CCC1CCN(c2nccc(Nc3ccc4[nH]ncc4c3)n2)CCN1 (centres unmarked) [Example 60]
Task item: Order the records so the highest pIC50 appears first and the lowest last. Please write the labels in the order that was asked for.
Reply: 4, 1, 2, 3, 5

A: CC1CNCCN(c2ncc(F)c(Nc3ccc4[nH]ncc4c3)n2)C1 (centres unmarked) [Example 218]
B: CCC1CN(c2nccc(Nc3ccc4[nH]ncc4c3)n2)CCN1 (centres unmarked) [Example 58]
C: CCC1CN(c2nccc(Nc3ccc(-c4ccncc4)cc3)n2)CCCN1 (centres unmarked) [Example 248]
Task item: Sort the molecules on pIC50; start with the lowest figure. Please write the labels in the order that was asked for.
Reply: B, A, C
(B: 6.72, A: 7.19, C: 7.44)

A: CC1CNCCN1c1nccc(Nc2ccc3[nH]ncc3c2)n1 (centres unmarked) [Example 232]
B: c1ccc(C2CN(c3nccc(Nc4ccc5[nH]ncc5c4)n3)CCCN2)cc1 (centres unmarked) [Example 64]
C: CC1CN(c2nccc(Nc3ccc4[nH]ncc4c3)n2)CCCN1 (centres unmarked) [Example 203]
Task item: Order the records so the highest pIC50 appears first and the lowest last. Please write the labels in the order that was asked for.
Reply: C, A, B

A: CCC1CNCCN1c1ncc(Cl)c(Nc2ccc3[nH]ncc3c2)n1 (centres unmarked) [Example 187]
B: CC(C)C1CN(c2nccc(Nc3ccc4[nH]ncc4c3)n2)CCCN1 (centres unmarked) [Example 65]
Task item: Consider A and B . Which of these has its pIC50 at a higher number? I would appreciate it if you answered with the label of your choice.
Reply: A
(A: 7.24, B: 7.01)

P: CC(C)C1CN(c2nccc(Nc3ccc(-c4ccncc4)cc3)n2)CCCN1 (centres unmarked) [Example 251]
Q: CCC1CN(c2nccc(Nc3ccc4[nH]ncc4c3)n2)CCCN1 (centres unmarked) [Example 62]
R: c1ccc(C2CN(c3nccc(Nc4ccc(-c5ccncc5)cc4)n3)CCCN2)cc1 (centres unmarked) [Example 18]
Task item: Sort the molecules on pIC50; start with the lowest figure. Please write the labels in the order that was asked for.
Reply: R, Q, P

a: COc1cnc(N2CCCNCC2)nc1Nc1ccc2[nH]ncc2c1 [Example 7]
b: Cc1cc(Nc2ccc(-c3ccncc3)cc2)nc(N2CCCNC(C)C2)n1 (centres unmarked) [Example 247]
Task item: Consider a and b . Which of these has its pIC50 at a higher number? I would appreciate it if you answered with the label of your choice.
Reply: a
(a: 7.19, b: 6.88)
